Biological target: Nociceptin receptor (Homo sapiens, UniProt P41146)
Sequence (P41146 whole entry): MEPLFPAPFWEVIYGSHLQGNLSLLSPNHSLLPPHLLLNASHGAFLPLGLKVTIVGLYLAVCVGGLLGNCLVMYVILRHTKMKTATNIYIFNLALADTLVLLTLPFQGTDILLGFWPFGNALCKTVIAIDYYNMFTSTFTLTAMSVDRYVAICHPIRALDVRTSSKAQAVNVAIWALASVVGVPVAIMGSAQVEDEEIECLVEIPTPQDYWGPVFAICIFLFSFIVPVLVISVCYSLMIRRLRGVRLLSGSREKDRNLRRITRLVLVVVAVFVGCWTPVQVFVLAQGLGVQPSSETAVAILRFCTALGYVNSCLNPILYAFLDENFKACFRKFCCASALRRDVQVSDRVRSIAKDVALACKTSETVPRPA
Assay: Displacement of [125I][Tyr14]nociceptin from human cloned ORL1 receptor expressed in CHO cells
Format: cell-based
Measure: Ki

Q: Please give measured Ki of the following entry: COC(=O)c1ccc([C@@]2(C(N)=O)C[C@H]3CC[C@@H](C2)N3C(c2ccccc2Cl)c2ccccc2Cl)nc1
A: > 1000 nM

Q: Please give measured Ki of the following entry: NC(=O)[C@]1(c2cccc(F)n2)C[C@H]2CC[C@@H](C1)N2C(c1ccccc1Cl)c1ccccc1Cl
A: 10 nM

Q: Please give measured Ki of the following entry: NC(=O)[C@]1(Cc2ccc(Cl)cc2)C[C@H]2CC[C@@H](C1)N2C(c1ccccc1Cl)c1ccccc1Cl
A: 10 nM

Next:
Q: Please give measured Ki of the following entry: NC(=O)[C@]1(c2ccc(Cl)cn2)C[C@H]2CC[C@@H](C1)N2C(c1ccccc1Cl)c1ccccc1Cl
A: 15 nM
